Test system: SK-MEL-28 melanoma
METHOD DESCRIPTION: NCI tumour cell line growth inhibition, 48 h
PARAMETER: TGI

Reference set, count: 5
In [3]: df
Out[3]:
                                   compound     target_of_assay  experimental_result
0  C/C(=N\N=C(\[Se])N1CCN(c2ccccn2)CC1)c1ccccn1  SK-MEL-28 melanoma              22.7 µM
1  Cc1nc2ccccc2c(=O)n1NC(=O)c1ccc([N+](=O)[O-])cc1  SK-MEL-28 melanoma             > 100 µM
2  CC(=O)OCC(=O)O[C@@H]1C[C@]2(C(C)C)O[C@@]1(C)[C@@H]1CC[C@@H](C)[C@H]1[C@@H]2OC(=O)/C=C/c1ccccc1  SK-MEL-28 melanoma              83.4 µM
3  COC(=O)Nc1nc2ccc(S(=O)(=O)n3nnc4ccccc43)cc2[nH]1  SK-MEL-28 melanoma             > 100 µM
4  Cc1c(-c2nnc(-c3ccc(Cl)cc3)o2)c(=O)n(-c2ccccc2)n1C  SK-MEL-28 melanoma             > 100 µM

Query block: Fill in TGI for record C=CCCCC1SC2=C(CC)CCCN2C1=O (stereo unspecified)
Result block: > 100 µM

###

Tested on: DU-145 prostate
METHOD DESCRIPTION: NCI tumour cell line growth inhibition, 48 h
PARAMETER: TGI

>>> print(df.to_string())
                             compound  parameter  experimental_result
0  O=C(CF)N(O)c1ccc(/C=C/c2ccccc2)cc1        TGI              6.96 µM

Please find the next compound below.
Query block: Report value: TGI, system: DU-145 prostate, compound: COc1ccc(/C=C2\N=C3Sc4c(nc[nH]c4=O)N3C2=O)cc1
Result block: > 100 µM

###

Tested on: SNB-78 CNS
METHOD DESCRIPTION: NCI tumour cell line growth inhibition, 48 h
PARAMETER: TGI

Reference set, count: 2
                                   compound  parameter  experimental_result
0  Cc1c(C(=O)C/C(=N/NC(=O)C[n+]2ccccc2)C(=O)Nc2ccccc2)[n+](=O)c2ccccc2n1O        TGI             > 100 µM
1  CCCc1c[nH]c(-c2ccc(-c3cc(CCC)c(C=O)[nH]3)s2)c1        TGI              37.2 µM

Query block: Report value: TGI, system: SNB-78 CNS, compound: CC1(C)OC(C[C@]2(C#N)C[C@H](CCl)OC(C)(C)O2)C[C@@H](C[C@]2(C#N)C[C@H](CCl)OC(C)(C)O2)O1 (stereo partly specified)
Result block: > 100 µM

Query block: Report value: TGI, system: SNB-78 CNS, compound: O=C(CCl)NC(Cc1ccc(F)cc1)C(=O)O (stereo unspecified)
Result block: > 100 µM

Query block: Report value: TGI, system: SNB-78 CNS, compound: COC(=O)C1=C(C(=O)OC)C23CC1C1C(C(=O)OC)=C(C(=O)OC)C12C1C=CC3C2C(=O)OC(=O)C21 (stereo unspecified)
Result block: > 100 µM

Query block: Report value: TGI, system: SNB-78 CNS, compound: O=C(c1cc2ccccc2o1)N(Cc1ccccc1)c1ccccc1
Result block: > 100 µM

###

Listed next: entries and their corresponding TGI.
System: HCT-116 colon
METHOD DESCRIPTION: NCI tumour cell line growth inhibition, 48 h
Numeric only. Scale: µM

Reference set, count: 5
                                   compound  parameter  experimental_result
0  CCN(CC)CCCNc1nc(=O)[nH]c(C)c1C(=O)Nc1c2ccccc2nc2ccccc12        TGI                 21.7
1  O=C1C(Cl)=C(N2C(=O)CCCC2=O)C(=O)c2ccccc21        TGI                   32
2        O=C(CF)N(O)c1ccc(/C=C/c2ccccc2)cc1        TGI                 6.63
3  Cc1ccc([N+](=O)[O-])cc1NC(=O)C(=O)C(C(=O)c1ccccc1F)C1OC(=O)c2ccccc21 (stereo not drawn)        TGI                 91.8
4           O=C(Nc1ccc(Cl)cc1F)c1cc(I)ccc1O        TGI                 2.87

Please find the next compound below.
Query block: Fill in TGI for record O=C1c2ccccc2C(=Cc2ccccc2)c2ccccc21
Result block: 5.13

###

Test system: T-47D breast
METHOD DESCRIPTION: NCI tumour cell line growth inhibition, 48 h; in the data active = GI50 below about 0.43 µM; inactive = the rest
Mark one answer only. Choices: Yes = active, No = inactive

// known answers, use as guide
                                   molecule  class_name
0  CC/C=C\C/C=C\C[C@H](O)C/C=C1/C(=O)C=C[C@@H]1C/C=C\CCCC(=O)O          No
1  Cc1cccc(C(=O)/C=C/SC(=NC#N)SCc2ccccc2)c1          No
2   C/C(=C\C1=C(Cl)C(=O)c2ccccc2C1=O)C(=O)O          No

Query block: Tell me the assay call for CN(C)c1ncnc2c1nnn2C1OC(CO)C(O)C1O (stereo unspecified) please.
Result block: Yes

Query block: Tell me the assay call for CN1CCN(Cc2ccc(NC(=O)c3cncc(C#Cc4cncc5ncccc45)c3)cc2C(F)(F)F)CC1 please.
Result block: No

Query block: Tell me the assay call for Cc1cnc(/C=N\NC(N)=S)c2cccc(N)c12 please.
Result block: No

###

System: MDA-MB-231 breast
METHOD DESCRIPTION: NCI tumour cell line growth inhibition, 48 h
PARAMETER: TGI

Reference set, count: 4
COMPOUND	TGI
O=c1[nH]c(=O)n(C2OC(CO)C(O)C2O)c2ccsc12 (centres undefined)	> 100 µM
O=[As](O)(O)c1ccc(N=Nc2ccc([As](=O)(O)O)cc2)cc1	> 100 µM
O=P(NC12CC3CC(CC(C3)C1)C2)(N1CC1)N1CC1	> 100 µM
COC(=O)Nc1nc2ccc(S(=O)(=O)n3nnc4ccccc43)cc2[nH]1	> 100 µM

Query block: Report value: TGI, system: MDA-MB-231 breast, compound: Cc1cnc(-c2c[nH]c3ccccc23)nc1-c1c[nH]c2ccccc12
Result block: 7.78 µM

Query block: Report value: TGI, system: MDA-MB-231 breast, compound: CN(C)c1ncnc2c1nnn2C1OC(CO)C(O)C1O (centres undefined)
Result block: > 100 µM

Query block: Report value: TGI, system: MDA-MB-231 breast, compound: Oc1ccc(O)c(-c2cc(-c3ccccc3)nn2-c2ccccc2)c1
Result block: > 100 µM

###

Tested on: MDA-N
METHOD DESCRIPTION: NCI tumour cell line growth inhibition, 48 h
Listed next: entries and their corresponding TGI.

Reference set, count: 5
COMPOUND	TARGET OF ASSAY	TGI
CC1CCC(O)(C(C)(C(=O)O)c2ccccc2)CC1 (stereo not drawn)	MDA-N	> 100 µM
CO/N=C(/C(=O)N(C(=O)/C(=N/OC)c1csc(NC(c2ccccc2)(c2ccccc2)c2ccccc2)n1)n1cnn(CC(=O)OC(C)(C)C)c1=O)c1csc(NC(c2ccccc2)(c2ccccc2)c2ccccc2)n1	MDA-N	> 10 µM
O=C1Nc2ccccc2S/C1=C\c1cccc(C(F)(F)F)c1	MDA-N	> 100 µM
O=C(CC(C(=O)c1ccco1)c1cccs1)c1cccs1 (stereo not drawn)	MDA-N	> 100 µM
Cc1cnc(-c2c[nH]c3ccccc23)nc1-c1c[nH]c2ccccc12	MDA-N	15.8 µM

Query block: Fill in TGI for record COC(=O)C1C(OC(=O)C(Cl)(c2ccccc2)c2ccccc2)CC2CCC1N2C (stereo not drawn)
Result block: > 100 µM

Query block: Fill in TGI for record CCOC(=O)Nc1cc2c(c(N)n1)N=C(c1ccccc1)[C@H](C)N2
Result block: 0.000122 µM

Query block: Fill in TGI for record CN(C)CCNC(=O)Cn1cc([N+](=O)[O-])c(=O)c2ccccc21
Result block: > 100 µM

Query block: Fill in TGI for record COc1cc(=O)n2c3ccccc3n(C)c2c1C#N
Result block: > 100 µM

Query block: Fill in TGI for record CC(=O)OC[C@@H]1[C@H]2CC[C@]3(C)[C@@H](OC(C)=O)CC[C@H]3[C@@H]2CC[C@H]1C1(C)SCCS1
Result block: > 25 µM

###

Tested on: SR leukemia
METHOD DESCRIPTION: NCI tumour cell line growth inhibition, 48 h
PARAMETER: TGI

COMPOUND	TARGET OF ASSAY	TGI
COc1ccc2c3c(n(Cc4ccccc4)c(=O)c2c1)-c1cc(OC)c(OC)cc1C3C (stereo unspecified)	SR leukemia	> 100 µM
CN(C)c1ccc(/C=C2\N=C(c3ccc([N+](=O)[O-])cc3)OC2=O)cc1	SR leukemia	86.9 µM
COc1cccc2c1-c1c(c3ccc([N+](=O)[O-])cc3c(=O)n1CCCCl)C2=O	SR leukemia	> 50 µM
COC(=O)[C@]12CC[C@@H](C)[C@H](C)[C@@H]1C1=CC[C@@H]3[C@@]4(C)C(C=O)=C[C@@](C)(COC(=O)c5ccco5)[C@@H]4C(=O)C[C@@]3(C)[C@]1(C)CC2	SR leukemia	39.4 µM

Query block: Fill in TGI for record C=CC(C=O)C1(O)CCOC(=O)/C1=C\N (stereo unspecified)
Result block: > 100 µM

Query block: Fill in TGI for record CN=C(NC#N)NCCSCc1nc[nH]c1C
Result block: > 100 µM

Query block: Fill in TGI for record CCCCOC(=O)NC(Nc1ccc(S(=O)(=O)Nc2ccc(OC)nn2)cc1)(C(F)(F)F)C(F)(F)F
Result block: > 100 µM

Query block: Fill in TGI for record O=C(CN1CCN(c2ccc(Cl)cc2)CC1)N1CCN(c2nnc(-c3ccc(Cl)cc3)c(-c3ccc(Cl)cc3)n2)CC1
Result block: 53.9 µM

Query block: Fill in TGI for record CCOC(=O)C(C)(C(=O)OCC)/C(Cl)=C\Cl
Result block: > 100 µM

Query block: Fill in TGI for record O=C(O)c1ccc(-c2nc3ccc(Cl)cc3[nH]2)cc1
Result block: > 100 µM

Query block: Fill in TGI for record Cc1ccc(C)c(NC(=O)NCc2ccc(Cl)cc2)c1
Result block: 27.8 µM

FYI, the data here is from PubChem BioAssay (NCI).
